test: yeast display, Sf9 membrane polyspecificity reagent, FACS + sequencing; frameworks hold sequencing errors
observation type: polyreactivity (PSR sort gate)

seq string | measured result
QLQHVESGGGLVQAGGSLRLSCAASGRIFGVNAQGWYRQAPGKERELVAAITSGGSTYYADSVKGRFTISRDNAKNTVYLQMKSLKPEDTAVYYGAARYYYLLWYTLPTKYDYWGQGTQVTVSS | high polyreactivity
QVQLVESGGGLDQAGGSLRLSCAASGSTFDGYAMGWYRRAPGKERELVAAITSSDGSTYYADSVKGRFTISRDNAKHTVYLQMYSLKPEDTAVYYCAAAPDWKDSLPPDMDYWGQGTQVSVSS | low polyreactivity
QVQLVESGGGLVQAGGSLRLSFAASGSNFGPNGMGWYRQAPGKERELVARIDRIGGGTYYADSVKGRFTISRDNAKNNVYLKMNSLKPEETAVYYCAKSGSAYWHSGWSVGFDYWGQGTQVTLSS | low polyreactivity
QVQLVESGGGLVQAGGSLRLSCAASGRTFQYYAMGWYIQGPGKERELVAAISWSGGSTYYADSVKGRFTISRDNAKNTVYLQMNSLKPEDTAVYFCAAVVGRNRTRSYGYWGQGTQVTVSS | high polyreactivity
QVQLVESGGGLVQAGVSLRLSCAASGRIFLWYAMGWYRQAPGKERELVAVIRGRGDSTSYADSVKGRFTISRDNAKNTVYLQMNSLKPEDTAVYYCADVGRYDYNDWGQGTQVTVSS | low polyreactivity
QVQLQESGGVLVQAGGDLRLSCAASGNIFRDYIMGWYRQAPGQERDFVAGIDRGANTNYADSVKGRFTISRDNAKNTVYLQMNSLKPEDTAVYYCAVHTAIVPDFIYWGQGTQVTVSS | low polyreactivity
QVQLVESGGGLVQAGGSLRLSCAASGFTFRYYTMGWYRQAPGKEREFVAAIRGGGSSTYYADSVKGRFTISRDNAKNTVYLQMTSLKPEDTAVYSCAAVTSQLYGYRYYYGGQGTQVTVSS | high polyreactivity
QVQLVESGGGLVQAGGSLRLSCAASGSTFDSYAMGWYRQAPGKERELVAALSYNGSSTDYADSVKGRFTISRDNAKNTVDEQMNSLKPEDTAVYYCAAAPGFSAGHHDYWGQGTQVTVSS | low polyreactivity
QVQLVESGGGLVQAGGSLRLSCAASGRTFGANAMGWYRQAPGKERELVAASTQDGGSTYYADSVKGRFTISRDNAKNTVYLQMNSLKPEDTAVYYCAADLVVFVQFDVAVDYYYWGQGTQVTVSS | low polyreactivity
QVQLVESGGGLVQAGGSLRLSCAASGSTFWFNAMGWYRQAPGKERELVAAITYRGASTNYADSVKGRFTISRDNAKNTVYLQMNSLKPEDTAVYYCATRPTWRPVPDSDVSTYGYWGQGTQVTVSS | low polyreactivity
QVQLVESGGGLVQAGGSLRLSCAASGSTFLYNAMGWYRQAPGKERELVAAISWSGGSTYYADSVKGRFTISRDNAKNTVYLQMNSLKPEDTAVYYCNALSVPDYDYWGQGTQVTVSS | high polyreactivity

* * *

test: yeast display, Sf9 membrane polyspecificity reagent, FACS + sequencing; frameworks hold sequencing errors

seq string | polyreactivity (PSR sort gate)
QVQLVESGGGLVQAGGSLRLSCAASGFIFGRYTMGWYSQAPGKERELVAAISSRGGSTYYADSVKGRFTISRDNAKNTVYLQMNSLKPEDTAVYYCAADEIYGYDYWGQGTQVTVSS | high polyreactivity
QVQLVESGGGLVQAGGSLRLSCAASGRTFRYNAMGWYRQAPGKERELVAAITQSGGSTYYADSVWGRFTISRDNAKNTVYLQMNSLKPDDTAVYYCAKVRERINYDYWGQGTQVTVSS | low polyreactivity
QVQLGESGGGLVQAGGSLRLSCAASGSTFVVYAMGWYRQAPGKERELVAAITRGASTTYADSVKGRFTISRDNAKNTVYLQMNSLKPEDTAVYYCAAAVAYEYLQSAYTRYYYWGQGTQVTVSS | high polyreactivity
QVQLVESGGGLVQAGGSLRLSCAASGRTFVVYAMGWYRQAPGKERELVAAISGRGGRTYYADSVKGRFTISRDNAKNTVYLQMNSLKPEETAVYYCATRSSVPKRFTRYGYWGHGTQVTVSS | high polyreactivity
QVQLVESGGGLVQAGGSLRLSCAASGSIFSPYAMGWYRQAPGKARELVAVITRSGGRTYYADSVKGRFTISRDNAKNTVYLQMNSLKPEDTAVYYCAATPKSWSSSTRDYWGQGTQVTVSS | high polyreactivity
QVQLVESGGGLVQAGGSLRLSCAASGLTLGRYAMGWYRQAPGNERELVAVITGGGSTNYADSVKGRFTISRDNAKNTVYIQLNSLKPADTAVYYCAVRGGIFQTLSTWYRYYYCGQGTQVTVSS | high polyreactivity
QVQLVESGGGLVQAGGSLRLSCAASGSIFQPYAMGWYRPAPGKERELVAAINGRGGSTHYADSVKGRFTISRDNAKNTVYLQMNSLNPEDTAVYYCAATWAYPGSGYVYFYGNDYWGQGTQVTVSS | high polyreactivity
QVQLVESGGGLVQAGGSLRLSCAASGLTFKYYAMGWYRQAPGKERELVAAITYSVGTTYYADSVKGRFTISRDNAKNTVYLQMNSLKPEDTAVYYCAADFAPVGLPSPYAVSEGEDDYWGQGTQVTVSS | low polyreactivity
QVQLVESGGGLVQAGGSLRLSCAASGIIFAQYTMGWYRQAPGKERELVAAINRNGGSTYYADSVKGRFTISRDNAKNTVYLQMNSLKPEDNAVYYCIADALGFRFDYWGQGTQVTVSS | low polyreactivity
QVQLVESGGGLVQAGGSLRLSCAASGSIYVYYGMGWYRQAPGKERELVAAISSGGSTHYADSVKGRFTISRDNAKNTVYLQMNSLKPEDTAVYYCAADRFFWLRSYPRYYYWGQGTQVTVSS | low polyreactivity
QVQLQESGGGLVQAVASLRLSCEASVSISSLDYMGWYRQASGKERELVAAIDNGSTTYYADSVKGRLTISRDNAKYTVYLQMNSLKPEDTAVYFCAAVRGRGGTHAYWGQGTQVTVSG | low polyreactivity

* * *

assay: yeast display, Sf9 membrane polyspecificity reagent, FACS + sequencing; frameworks hold sequencing errors

seq string | polyreactivity (PSR sort gate)
QVQLVESGGGLVQAGGSLRLSCAASGIIFSINAMGWDRQAPGKERELVAAISRSGGSTNYADSVKGRFTISRDNAKNTVYLQMNSLKPEDTAVYYCATVHRYSVWSHNYWGQGTQVTVAS | high polyreactivity
QVQLVESGGGLVQAGGSLRLSCAASGSTFGTYAMGWYRQATGKERELVAAISRGVSTYYADSVKGRFTISRDKAKNTVYLEMNSLKPEDTAVYYCAADPFWQTVYVYYTYSGTSYYWGQGTQVTVSS | low polyreactivity
QVQLVESGGGLVQAGGSLRLSCAASGNIFANYAMGWYRQAPGKERELVAAIRWSASRPYYADSVKGRFTISRDNAKNTVYLQMNSLKPEDTAVYYCAATIYTFWDYYYDYWGQGTQVTVSS | high polyreactivity
QVQLVESGGGLVQAGGSHRLSCAASGRIFRPYAMGWYRQAPGKEREFVATITRSVGRTYYADSVKGRFTISRDNAKNTVYLQMNSLKPEDTAVYYCATKYIRGTRADVYRFDYWGQGTQVTVSS | high polyreactivity
QVQLEESCGGLVQAGGSLRLSCAASGRTFRYYPMGWYRQAPGKERELVAAITTGSSTYYADSVKGRFTISRDNANNTVYLQMNSLKPEDTAVFYCNVFQGTRYGYWGQGTQVTVSS | low polyreactivity

* * *

assay: yeast display, Sf9 membrane polyspecificity reagent, FACS + sequencing; frameworks hold sequencing errors

seq string | polyreactivity (PSR sort gate)
QVQLVESGGGLVQAGGSLRLSCAASGSTFWYNTMGWYRQAPGKERELVAAITSSGGSTYYADSVKGRFTISRDNAKNTVYLQMNSLKPEDTAVYYCNALHTRTGVKARYYYWGQGTQVTVSS | high polyreactivity
QVQLVESGGGLVQAGGSLRLSCAASGRIFTGYVMGWYRQAPGKERELVAAITYTGGSTFYADSVKGRFTISRDNAKNTVYLQMNSLKPEDTAVYYCAADESPYFLDIVTYYEFDYWGQGTQVTVSS | low polyreactivity
QVQLVESGVGLVQAGGSLRLSCAASGRTFAYYAMGWNRQAPWKERELVARITSDGSTYYADSVKGRFTISRDNAKNTVYLQMNSLIPEDTAVYYCNARWRYKWKYDHWGQGTQVTVSS | low polyreactivity
QVQLVESGGGLVQAGGSLRLSCAASGTFAFYTMGWYRPAPGKERELVAAISWDGGDTYYADSVKGRFTISRDNAKNTVYLQMNSLKPEDTAVYYCAADYSNSGYGYWGQGTQVTVSS | low polyreactivity
QVQLVESGGGLVQAGGSLRLSCAASGSTFYVYAMGWYRQAPGKERELVAAIRGGGSTNYADSVKGRFTISRDNAKNTVYLQMNSLKPEDTAVYYCAKLPYTRTYLGSLYDYWGQGTQVTVSS | high polyreactivity
QVQLVESGGGLVQAGGSLRLSCAASGRTLVPYAMGWYRQAPGKERELVAAINSSGGSTYYADSVKGRFTISRDNEKNTVYLQMNSLKPEDTAVYYCNVQSVHFRLWKDNYWGQGTQVTVSS | high polyreactivity
QVQLVESGGGLVQAGGSLRLICAASGSIFEYYAIRLYRQAPGTERELVADITYDGGNTYYADSLKGRFTISRDNAKNTVYLQMNSLKPEDTAVYYCATEYRYWQSDYSTYFPYDYWGQGTQVTVSS | low polyreactivity
QVQLVESGGGLVQAGGSLRLSCAASGNTFYRYAMGWYRQAPGKERELVAAITWSGSRTYYADSVKGRFTISRDNAKNTVYLQMNSLKPEDTAVYYCAAPFWYVGPAMDYWGQGTQVTVSS | low polyreactivity
QVQLVESGGGLVQAGGSLRLSCAASGRTFAKYGMGWYIQAPGKERELVAAIDYSGGSTYYADSVKGRFTISRDNAKNTVYLQMNSLKPEDTAVYYCAADYFWLYYSEYGYWGQGTQVTVSS | low polyreactivity
QVQLVESGGGLVHAGGCLRLSCAASGRTFAPYAMGWYRLAPGKERELVAAINSGDRTYYADSVKGRFTLSRDNAKNTVNLQINSLKPEDTSGYYCSSDALAGQYTWYKYDYWGQGSQVTVSS | low polyreactivity
QDQLVESGGGLVQAGGSLRLSCAASGRTFDSYAMGWYRQAPGKERELVAAIDADSVKGRFTISRDNAKNTVYLQMNSLKPEVTAVYYCAKPSRWGWTGFYAYEYWGQGTQVTVSS | low polyreactivity
